# credit: the supplement of paper PMC9170038

- System: MS2 coat protein
- Experiment Summary: apparent KD of MS2 coat protein; designed switch direction (-1 OFF switch, 1 ON switch): -1; higher = weaker reporter binding
- Assay Setup: input ligand: none
Outcome Measure: apparent KD of MS2 coat protein

Sequence Input	Target System	Data Value
UAAUUUUUAGUAAGGAUAUCGGUCCCAAGGGACAACGAGAAGGUACAUGAGGAUCACCCAUGUUACGAAAGAAU [Mod of Zala 10 - Jieux - Brourd's Mod of Exclusion 4] (Eterna round: R97, puzzle: Brourd's mod of Exclusion 4)	MS2 coat protein	0.018 µM
ACAUGAGGAUCACCCAUGUGAAAACAAUGGCUGACUUUGAGACAGGAUAUAGGUGCAUAUCAAACCUAGAAGGGUCAUUACUGG [Deportation 93 - Jieux - Exclusion NG 3] (Eterna round: R96, puzzle: Exclusion NG 3)	MS2 coat protein	0.0382 µM
ACGUUGUCAGGAUAUCGUUAAUUUAGUUGUUUGUAUUAGUUCGAGAAGGGACAUGAGGAUCACCCAUGUUUGAA [Ex4 #34] (Eterna round: R97, puzzle: Exclusion 4)	MS2 coat protein	0.0315 µM
AAUUUAUGAGGAUAUACAGUGUAAAACAUGAGGAUCACCCAUGUUCUUCAAUUAGUAUAUGUAGAAGGCAUAUGUA [JR_Ex5_Sub096] (Eterna round: R97, puzzle: Exclusion 5)	MS2 coat protein	0.0137 µM
GUUUUCAGACGGAGAUCCUACAUGAGGAUCACCCAUGUCUCUCUUGUUUUUUGCUCGUCUUUUCCUCCUCUGUUCUC [Elimod 32 - Jieux - Sensor, turn-off variant 1] (Eterna round: R97, puzzle: Sensor, turn-off variant 1)	MS2 coat protein	0.515 µM
CAUAAGUGAGGAUAUCCUGGCCCUAUGCGUUAGGCGCGCUAGGAGAAGGCACAUGAGGAUCACCCAUGUCUCUC [Eternabot (L1) Solution 21] (Eterna round: R97, puzzle: Exclusion 4)	MS2 coat protein	0.0297 µM
AUAAAUCAUGUAGGAUAUGCGUAGCGAAGCUAUGCAGAAGGACAUGAGGAUCACCCAUGUCUUUCCGUCUGCGAACAGACGGAA [Mat - Exclusion NG 1 - Mod of JL - D43] (Eterna round: R96, puzzle: Exclusion NG 1)	MS2 coat protein	0.0316 µM
ACAUGAGGAUCACCCAUGUCCGGCUGGUCUGUUUCGGUUGUCGAGGAUAUAGUUCGGUGUUCGCGCUAGAAGGUGGGAGCUGGC [Aenatbe mod 57] (Eterna round: R96, puzzle: Exclusion NG 3)	MS2 coat protein	0.175 µM
GGCAUGUAAGGAUAUGCCACGCAGGCCUUUGGCCUGCGUAAGCAGAAGGUACAUGAGGAUCACCCAUGUGAUAA [jl-ex4-4.57 ViennaUCT mod] (Eterna round: R97, puzzle: Exclusion 4)	MS2 coat protein	0.727 µM
